experiment: in vivo; conditions: female, cynomolgus monkey, sc, 5 mg/kg/day, Average Concentration, Optic Nerve
measuredMetric: concentration at 29 day
# number then unit; no other words

Bench note: what concentration at 29 day did Cc1cc(O)cc(C)c1C[C@H](NC(=O)[C@H](N)CCCNC(=N)N)C(=O)N[C@@H](CCCCN)c1nc(Cc2ccccc2)no1.Cl.Cl.Cl show? 31800 ng/g

* * *

assay: in vivo; details: female, cynomolgus monkey, sc, 5 mg/kg/day, Average Concentration, ICB (iris/ciliary body)
measuredMetric: concentration at 29 day (ng/g)
// note: answer is a bare numeric in ng/g

Returns the measured concentration at 29 day for the input compound. Input: Cc1cc(O)cc(C)c1C[C@H](NC(=O)[C@H](N)CCCNC(=N)N)C(=O)N[C@@H](CCCCN)c1nc(Cc2ccccc2)no1.Cl.Cl.Cl [Formula IIa] 800
